Tested on: LXRb homodimer (NR concentration 270 nM)
Experiment: PBM binding z-score (relative to random genomic background probes); higher = stronger binding; sequences stand for … in GC…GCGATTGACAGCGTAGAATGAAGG
sequences and their reported PBM binding z-score
Give a plain numeric answer without units written out.

Examples with answers:
sequence input: TCTCGGAGGACAAGAAGGTCAGAGCTTTCCAGAG
PBM binding z-score: -0.842

sequence input: CCTTACGGGTCACTGACAGGTTACAGCATTTGGA
PBM binding z-score: -0.275

sequence input: CCGAGTAGGTTATGGGCCATTCAGGCAACGGTGA
PBM binding z-score: -0.497

sequence input: GCATATAGGGAATACAAGGTGAAAGTCCGATTGT
PBM binding z-score: -0.489

sequence input: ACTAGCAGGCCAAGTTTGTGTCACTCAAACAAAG
PBM binding z-score: -0.886

# context switch: different sequence, same PBM binding z-score
(Q) Bench note: what PBM binding z-score did TCTCGGACGACACGAAAGGTCAGAGCTCGACATC show?
(A) 0.313

###

System: LXRb homodimer (NR concentration 270 nM)
Assay: PBM binding z-score (relative to random genomic background probes); higher = stronger binding; sequences stand for … in GC…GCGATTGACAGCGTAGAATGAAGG
property measured: PBM binding z-score

Examples with answers:
sequence input: CCCACTGGGGCAGAAAGGTTACCATACCATCCGG
PBM binding z-score: -0.892

sequence input: TAGCCTAGGTCTGATCGGGCCAGTATACGCTATA
PBM binding z-score: -1.01

sequence input: CCTGCTAGGTCATGGTCAGCTGATCTACAGTATG
PBM binding z-score: -0.492

(Q) Bench note: what PBM binding z-score did GCTAGCAGGTCATTTGGGTCACTCAATGACGGGC show?
(A) 0.927

(Q) Bench note: what PBM binding z-score did TGAATGAGTTTAAAGATCAGGGAACGTGGCGTCG show?
(A) 0.209

(Q) Bench note: what PBM binding z-score did AGTCAAAGTTCATCTAGGTAACGTCAGATATGCT show?
(A) 1.91

(Q) Bench note: what PBM binding z-score did CCGAATGGGGCAAGGTTACCATAACGCACAGCCA show?
(A) -0.855

(Q) Bench note: what PBM binding z-score did GGTCGGAGGACAAGGTCAGAGCTTTGTCCGTAGA show?
(A) -0.689

(Q) Bench note: what PBM binding z-score did CCTTACGGGTCACGAGGTTATAGCTCGACGAGCG show?
(A) 0.048

(Q) Bench note: what PBM binding z-score did TCAGACAGGCGAAGGTAACTCAGGTACGCAGTCG show?
(A) -0.893

(Q) Bench note: what PBM binding z-score did ATCTCTAGGTAAAGTTCTGTGAAAGATCGATAGA show?
(A) 0.741

(Q) Bench note: what PBM binding z-score did TCTGCTAGGTCAGTTGGTTAGCTAACGAGCTGCC show?
(A) 0.257

(Q) Bench note: what PBM binding z-score did ACAGACAGGTGAGGGAAGGTAACTCAGCTGGACG show?
(A) -0.443

(Q) Bench note: what PBM binding z-score did TATACAGGGTCAAATGCCAGAGTACGAATGTCGA show?
(A) 3.42

(Q) Bench note: what PBM binding z-score did TAGCCTAGGTCAATCAGGGGCCAGTATAGAAAGC show?
(A) 0.0516

(Q) Bench note: what PBM binding z-score did ATCGAAAGGTCGTGAGGTGAGAATACAGAAAGGC show?
(A) 0.293

(Q) Bench note: what PBM binding z-score did TCTTGTAGATCAAAGGTTAAAAAAGCCGAAGCCT show?
(A) 0.41

Sourced from the supplement of paper PMC6555819
